Method summary: Mouse plasma pharmacokinetics
Assay type: in vivo
Measurement setup: male, mouse, ip; 80 mg/kg single i.p. dose, C57BL/6 mice, plasma; read-out: T1/2 (converted)
Experimental readout: half-life (h)

- Compound: "CN1Cc2cc(-c3ccc(-c4cncc(NS(=O)(=O)c5ccccc5[N+](=O)[O-])c4)s3)ccc2C1=O [Compound 1]"
  Endpoint value: 2.85

* * *

Method summary: Mouse plasma pharmacokinetics
Assay type: in vivo
Measurement setup: male, mouse, ip; 10 mg/kg single i.p. dose, C57BL/6 mice, plasma; read-out: AUC0–24
Experimental readout: AUC(0-t) (µM·h)

- Smiles input: "CN1Cc2cc(-c3ccc(-c4cncc(NS(=O)(=O)c5ccccc5[N+](=O)[O-])c4)s3)ccc2C1=O"
  Result unit: "µM·h"
  Endpoint value: 413

* * *

Method summary: Plasma protein binding by equilibrium dialysis
Assay type: in vitro ADME, mouse
Measurement setup: CD1, pooled mouse plasma, pH 7.4; concentration 1000 μM, mouse plasma

- Smiles input: "CN1Cc2cc(-c3ccc(-c4cncc(NS(=O)(=O)c5ccccc5[N+](=O)[O-])c4)s3)ccc2C1=O"
  fraction unbound at 6 h, 1000 μM: 0.0038

* * *

Method summary: Binding to proteins in KHYG-1 cell media (RPMI with 0.1% BSA) by equilibrium dialysis
Format: in vitro ADME
Measurement setup: bovine, pH 7.4, read-out: free fraction in the KHYG-1 cell media

- Smiles input: "CN1Cc2cc(-c3ccc(-c4cncc(NS(=O)(=O)c5ccccc5[N+](=O)[O-])c4)s3)ccc2C1=O"
  fraction unbound at 6 h, 10 μM: 0.144

* * *

Method summary: Mouse plasma pharmacokinetics
Assay type: in vivo
Measurement setup: male, mouse, ip; 80 mg/kg single i.p. dose, C57BL/6 mice, plasma

- Smiles input: "CN1Cc2cc(-c3ccc(-c4cncc(NS(=O)(=O)c5ccccc5[N+](=O)[O-])c4)s3)ccc2C1=O"
  Cmax [µM]: 782

* * *

Method summary: Mouse plasma pharmacokinetics
Assay type: in vivo
Measurement setup: male, mouse, ip; 160 mg/kg single i.p. dose, C57BL/6 mice, plasma

- Smiles input: "CN1Cc2cc(-c3ccc(-c4cncc(NS(=O)(=O)c5ccccc5[N+](=O)[O-])c4)s3)ccc2C1=O"
  Cmax [µM]: 1190

* * *

Method summary: Plasma protein binding by equilibrium dialysis
Assay type: in vitro ADME, mouse
Measurement setup: CD1, mouse, pooled mouse plasma, pH 7.4; at a free fraction of 0.002; read-out: total plasma concentrations required to achieve unbound plasma concentrations equivalent to the in vitro unbound IC90
Experimental readout: total plasma concentration required for unbound IC90 at 6 h

- Compound: "CN1Cc2cc(-c3ccc(-c4cncc(NS(=O)(=O)c5ccccc5[N+](=O)[O-])c4)s3)ccc2C1=O [Compound 1]"
  Endpoint value: "~350 µM"

* * *

Method summary: Mouse plasma pharmacokinetics
Assay type: in vivo
Measurement setup: 10 mg/kg single i.p. dose, C57BL/6 mice, plasma

- Smiles input: "CN1Cc2cc(-c3ccc(-c4cncc(NS(=O)(=O)c5ccccc5[N+](=O)[O-])c4)s3)ccc2C1=O"
  Cmax [µM]: 105

* * *

Method summary: Mouse plasma pharmacokinetics
Format: in vivo
Measurement setup: male, C57BL/6, ip; mouse plasma; 10 mg/kg intraperitoneal; read-out: T1/2 (converted)

- Smiles input: "O=C1NCc2ccc(-c3ccc(-c4cncc(NS(=O)(=O)c5ccc(F)cc5F)c4)s3)cc21"
  half-life / h: 4.1
